Hello, the source for this data is paper PMC6017631, in case you need it.

# ASSAY_COMMENT: Cytotoxicity, MTT assay
# Type: cell-based, African green monkey
# EXPERIMENTAL_CONTEXT: African green monkey, GMK cells (African green monkey kidney epithelial cells); GMK cells, 48 h exposure, MTT; highest tested concentration 500 μg/mL
PROPERTY: IC50 at 48 h

# COMPOUND, IC50 at 48 h
data = [
    ("CO[C@H]1/C=C/O[C@@]2(C)Oc3c(C)c(O)c4c(O)c(c(/C=N/N5CCN(C)CC5)c(O)c4c3C2=O)NC(=O)/C(C)=C\\C=C\\[C@H](C)[C@H](O)[C@@H](C)[C@@H](O)[C@@H](C)[C@H](OC(C)=O)[C@@H]1C [RMP, rifampicin, reference compound]", "142 µg/mL"),
    ("CC1=CCC2CC1C2(C)C (stereo not drawn) [α-pinene]", "> 500 µg/mL"),
]

**Query** Given NNC(=O)c1ccncc1 [INH, isoniazid, reference compound] , state its recorded IC50 at 48 h.
**Result** > 500 µg/mL

====

# ASSAY_COMMENT: Cytotoxicity, MTT assay
# Format: cell-based, African green monkey
# EXPERIMENTAL_CONTEXT: African green monkey, GMK cells (African green monkey kidney epithelial cells); exposure to the highest tested concentration (500 μg/mL)
PROPERTY: viability at 48 h, 500 µg/mL

**Query** Given CC1=CCC2CC1C2(C)C (stereo not drawn) [α-pinene] , state its recorded viability at 48 h, 500 µg/mL.
**Result** ~90%

====

# System: H37RV ATTC 25618
# ASSAY_COMMENT: MIC determination, serial dilution in Middlebrook 7H9, and FICI
# Format: cell-based, Mycobacterium tuberculosis
# EXPERIMENTAL_CONTEXT: Mycobacterium tuberculosis, H37RV
PROPERTY: MIC (µg/mL)
Answers are plain numbers, in µg/mL.

# COMPOUND, MIC [µg/mL]
rows = [
    ("C=C1CCC2(C(C)C)CC12 (stereo not shown)", 128),
]

Lab note: each compound below needs its MIC filled in.
1. CC1=CCC2CC1C2(C)C (stereo not shown)
2. C=CC(=C)CCC=C(C)C

**Result**
[128, 256]
